- Measured target: D(3) dopamine receptor (Rattus norvegicus)
- Sequence (P19020 whole entry): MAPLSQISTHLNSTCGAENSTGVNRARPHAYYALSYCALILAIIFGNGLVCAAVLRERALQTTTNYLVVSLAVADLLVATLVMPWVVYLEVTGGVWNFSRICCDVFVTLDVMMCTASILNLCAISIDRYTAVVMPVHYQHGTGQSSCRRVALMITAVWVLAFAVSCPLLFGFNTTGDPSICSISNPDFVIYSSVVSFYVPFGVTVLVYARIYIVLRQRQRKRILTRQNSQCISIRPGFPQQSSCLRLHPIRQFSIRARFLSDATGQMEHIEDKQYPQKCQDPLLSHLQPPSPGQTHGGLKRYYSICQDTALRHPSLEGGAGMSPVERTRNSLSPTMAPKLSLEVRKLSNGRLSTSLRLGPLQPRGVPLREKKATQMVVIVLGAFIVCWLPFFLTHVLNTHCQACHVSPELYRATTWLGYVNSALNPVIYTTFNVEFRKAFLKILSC
Consider the following molecules; for each one, report its Ki.
One number for each entry, in nM.

Field: example entries. Status: answers known.
O=C(NCCCCN1CCN2c3ccccc3CCC2C1)c1ccc(-c2ccccc2)cc1 (configuration not stated); 22
COc1cccc2c1CCC1CN(CCCCNC(=O)c3ccc4ccccc4c3)CCN21 (configuration not stated); 5.8
COc1ccc2c(c1)CCC1CN(CCCCNC(=O)c3ccc4ccccc4c3)CCN21 (configuration not stated); 244
O=C(NCCCN1CCN2c3ccccc3CCC2C1)c1ccc(-c2ccccc2)cc1 (configuration not stated); 2520
O=C(CN1CCN2c3ccccc3CCC2C1)c1ccc(F)cc1 (configuration not stated); 7490

# per-item lookup of Ki; items listed below
1. O=C(CCN1CCN2c3ccccc3CCC2C1)c1ccc(F)cc1 (configuration not stated)
2. O=C(NCCN1CCN2c3ccccc3CCC2C1)c1ccc(-c2ccccc2)cc1 (configuration not stated)

Result ::
[2750, 23000]

---

- Measurement notes: Binding affinity for D2-like [3H]spiperone receptor was determined using caudate-putamen of adult male Spragueo?=Dawley rats
- Assay type: tissue-based, Rattus norvegicus
Recorded endpoint: Ki (nM)
Answers are plain numbers, in nM.

Field: example entries. Status: answers known.
O=C(CCCN1CCN2c3ccccc3CCC2C1)c1ccc(F)cc1 (stereo not given); 243
COc1cccc2c1CCC1CN(CCCCNC(=O)c3ccc4ccccc4c3)CCN21 (stereo not given); 762
O=C(NCCN1CCN2c3ccccc3CCC2C1)c1ccc2ccccc2c1 (stereo not given); 1390
O=C(NCCCN1CCN2c3ccccc3CCC2C1)c1ccc(-c2ccccc2)cc1 (stereo not given); 906
O=C(CN1CCN2c3ccccc3CCC2C1)c1ccc(F)cc1 (stereo not given); 3890

# per-item lookup of Ki; items listed below
1. O=C(CCCCN1CCN2c3ccccc3CCC2C1)c1ccc(F)cc1 (stereo not given)
2. O=C(NCCCN1CCN2c3ccccc3CCC2C1)c1ccc2ccccc2c1 (stereo not given)
3. COc1ccccc1N1CCN(CCCCNC(=O)c2ccc3ccccc3c2)CC1
4. O=C(NCCCCN1CCN2c3ccccc3CCC2C1)c1ccc(-c2ccccc2)cc1 (stereo not given)
5. COc1cccc2c1N1CCN(CCCCNC(=O)c3ccc4ccccc4c3)CC1CC2 (stereo not given)
6. COc1ccc2c(c1)N1CCN(CCCCNC(=O)c3ccc4ccccc4c3)CC1CC2 (stereo not given)

Result ::
1: 852; 2: 2440; 3: 162; 4: 220; 5: 258; 6: 1120

# per-item lookup of Ki; items listed below
1. O=C(NCCCCN1CCN2c3ccccc3CCC2C1)c1ccc2ccccc2c1 (stereo not given)
2. O=C(CCN1CCN2c3ccccc3CCC2C1)c1ccc(F)cc1 (stereo not given)

Result ::
1570
3640

---

- Measurement notes: Binding affinity for D1-like [3H]-SCH- 23390 receptor was determined using caudate-putamen of adult male Spragueo?=Dawley rats
- Type: tissue-based, Rattus norvegicus
Consider the following compounds; for each one, report its pKi.
One number for each entry, as −log10 of the molar value.

# per-item lookup of pKi; items listed below
1. O=C(NCCCCN1CCN2c3ccccc3CCC2C1)c1ccc2ccccc2c1 (stereo not given)
2. O=C(CN1CCN2c3ccccc3CCC2C1)c1ccc(F)cc1 (stereo not given)
3. O=C(NCCCN1CCN2c3ccccc3CCC2C1)c1ccc(-c2ccccc2)cc1 (stereo not given)
4. COc1ccccc1N1CCN(CCCCNC(=O)c2ccc3ccccc3c2)CC1
5. O=C(NCCCN1CCN2c3ccccc3CCC2C1)c1ccc2ccccc2c1 (stereo not given)
6. O=C(CCCCN1CCN2c3ccccc3CCC2C1)c1ccc(F)cc1 (stereo not given)

Result ::
1: 6.10; 2: 5.10; 3: 6.45; 4: 6.20; 5: 3.82; 6: 5.61

Sourced from ChEMBL document CHEMBL1142048
